FYI, the data here is from PubChem BioAssay (NCI).

Tested on: RXF 393 renal
Assay: NCI-60 one-dose screen, 48 h
Details: 10 µM
The panel holds about 83,000 compounds, 20% with a hit somewhere; the sample as a whole holds those more often. Active and inactive are the calls of the source. The calls were made as follows: active = growth percent below 10; inactive = the rest.
Give your call using only these classes: active, inactive

// below: answered compounds
[
  {
    "compound": "COc1cc(/C=C2\\CCCC3=C2N=C2SC(C)=CN2C3c2cc(OC)c(OC)c(OC)c2)cc(OC)c1OC (configuration not stated)",
    "group": "active"
  },
  {
    "compound": "CC(=O)[C@@]12O[C@](C)(c3ccccc3)O[C@@H]1CC1C3CCC4=CC(=O)CC[C@]4(C)C3CC[C@@]12C (some centres not stated)",
    "group": "inactive"
  },
  {
    "compound": "CCN(CC)c1ccc(/C=C2\\SC(=O)C(Nc3nnc(-c4cccnc4SCc4ccccc4)o3)C2=O)cc1 (configuration not stated)",
    "group": "active"
  }
]

// outcome(item) with item = COc1cc2cc(Oc3ccc(NC(=O)c4ccccc4)cc3)c(C)nc2cc1OC
inactive

// outcome(item) with item = COc1cc2nc(SCC(=O)Nc3cc(OC)c(OC)c(OC)c3)n(Cc3ccccc3)c(=O)c2cc1OC
inactive

// outcome(item) with item = O=C(CCl)Nc1ccc(Cc2ccc(NC(=O)CCl)cc2)cc1
active

// outcome(item) with item = CCN1CC(CCN2CCOCC2)C(C(c2ccccc2)c2ccccc2)C1=O (configuration not stated)
inactive

* * *

System: KM12 colon
Test: NCI-60 one-dose screen, 48 h
Conditions: 10 µM
Compounds without any hit were thinned out: in the full panel of roughly 83,000, 20% have a hit. Calls of active or inactive are those of the source. Rule for the calls: active = growth percent below 10; inactive = the rest.
Give your call using only these classes: label 1 (active), label 0 (inactive)

// below: answered compounds
[
  {
    "compound": "CC(C1=C(CN(C(=O)Cc2cn(-c3ccccc3)nc2-c2ccc(Cl)cc2)C(C)C)Cc2ccccc21)c1ccccn1 (stereo unspecified)",
    "group": "label 0"
  },
  {
    "compound": "C=CCn1c(SCC(=O)Nc2ccc(C(=O)/C=C/c3ccc(Cl)cc3)cc2)nnc1-c1cc(-c2ccccc2)nc2ccccc12",
    "group": "label 0"
  },
  {
    "compound": "COc1cc(/C=C/c2cc(/C=C/c3ccc(O)c(OC)c3)n(C(=O)Nc3ccccc3Cl)n2)ccc1O",
    "group": "label 1"
  },
  {
    "compound": "N#CC1=C(N)Oc2cc(N)ccc2C1c1cccnc1 (stereo unspecified)",
    "group": "label 0"
  },
  {
    "compound": "Cc1c2cnccc2c(C)c2c1c1cc(O)ccc1n2C(C)C",
    "group": "label 1"
  }
]

Next compound, please.
// outcome(item) with item = COc1ccc(-c2n[nH]nc2-c2cc(OC)c(OC)c(OC)c2)cc1
label 1

* * *

Test system: SK-MEL-2 melanoma
Assay: NCI-60 one-dose screen, 48 h
Conditions: 10 µM
This is part of a sample that, as a whole, favours compounds with a hit. Of some 83,000 tested, about 20% had one in any assay. The source made the active and inactive calls. Rule for the calls: active = growth percent below 10; inactive = the rest.
Give your call using only these classes: active, inactive

// below: answered molecules
[
  {
    "molecule": "O=C1c2c(c(=O)[nH]c3ccccc23)CCN1Cc1ccccc1",
    "group": "inactive"
  },
  {
    "molecule": "CC[C@@H](C(=O)[C@@H](C)[C@@H](O)[C@H](C)[C@@H]1O[C@@H]([C@@H](CC)C(=O)N(CC)CC)CC[C@@H]1C)C1O[C@]2(C=CC(=O)[C@]3(CC[C@@](C)([C@H]4CC[C@](O)(CC)[C@H](C)O4)O3)O2)[C@H](C)C[C@@H]1C (some centres not stated)",
    "group": "inactive"
  },
  {
    "molecule": "COc1cc(/C=C2\\CCCC3=C2NC(N)=NC3c2cc(OC)c(OC)c(OC)c2)cc(OC)c1OC (configuration not stated)",
    "group": "active"
  },
  {
    "molecule": "COc1ccc(/C=C2\\CCCC3=C2N=C2SC(C)=CN2C3c2ccc(OC)cc2)cc1 (configuration not stated)",
    "group": "inactive"
  },
  {
    "molecule": "CSc1nc2c(c(=O)n1C)CN(Cc1ccccc1)C(=O)CN2",
    "group": "inactive"
  },
  {
    "molecule": "CCCCN1C(=O)CC(SC2CC(=O)N(CCCC)C2=O)C1=O (configuration not stated)",
    "group": "inactive"
  }
]

Next molecule, please.
// outcome(item) with item = CCC(=O)OC1CCC2C3CCC(=O)OC3C(C)(CCC(=O)O)CC12C (configuration not stated)
inactive

* * *

Tested on: RPMI-8226 leukemia
Assay: NCI-60 one-dose screen, 48 h (100 = growth as untreated, 0 = no growth, -100 = all killed)
Conditions: 10 µM
Compounds without any hit were thinned out: in the full panel of roughly 83,000, 20% have a hit.
Threshold rule: growth greater than or equal to 70% is yes; below that, no.

// below: answered compounds
[
  {
    "compound": "COc1ccc(/C(C#N)=C/c2cccc(OC)c2OC)cc1",
    "group": "yes"
  },
  {
    "compound": "N#Cc1c(-c2ccc(Cl)cc2)csc1NC(=O)Nc1ccc(Cl)c(C(F)(F)F)c1",
    "group": "no"
  },
  {
    "compound": "COc1cccc2ccc(CC(O)(c3ccccc3)c3ccccc3)nc12",
    "group": "yes"
  },
  {
    "compound": "COc1cc(/C=C2\\CCCC3=C2NC(N)=NC3c2cc(OC)c(OC)c(OC)c2)cc(OC)c1OC (centres undefined)",
    "group": "no"
  }
]

State whether the measured growth reaches 70%, counting equality as reaching it, for CCCc1nc(C(C)(C)O)c(C(=O)O)n1Cc1ccc(-c2ccccc2-c2nn[nH]n2)cc1
yes

State whether the measured growth reaches 70%, counting equality as reaching it, for COc1cc(C)ccc1Oc1nc(Nc2ccc(N3CCOCC3)cc2)ncc1NC(=O)Nc1cc(C(F)(F)F)cc(C(F)(F)F)c1
no

State whether the measured growth reaches 70%, counting equality as reaching it, for CC(C)(C)OC(=O)CC(S(=O)(=O)c1ccccc1)S(=O)(=O)c1ccccc1
yes

State whether the measured growth reaches 70%, counting equality as reaching it, for CCOC(=O)c1cc(C(=O)c2cc(OC)c(OC)c(OC)c2)n2ncc3ccccc3c12
yes

State whether the measured growth reaches 70%, counting equality as reaching it, for O=c1[nH]c(=O)n(C2C[C@H](O)[C@@H](CO)O2)cc1C(F)(F)F (some centres undefined)
yes

* * *

Tested on: 786-0 renal
Assay: NCI-60 one-dose screen, 48 h (100 = growth as untreated, 0 = no growth, -100 = all killed)
Settings: 10 µM
This is part of a sample that, as a whole, favours compounds with a hit. Of some 83,000 tested, about 20% had one in any assay.
Threshold rule: growth greater than or equal to 50% is Y; below that, N.

// below: answered molecules
[
  {
    "molecule": "CCN(CC)CCCC(Nc1c2ccc(Cl)cc2nc2ccc(OC)cc12)c1ccc(F)cc1 (stereo not drawn)",
    "group": "N"
  },
  {
    "molecule": "O=C(Cn1cc(CO)nn1)Nc1nc2ccccc2s1",
    "group": "Y"
  },
  {
    "molecule": "O=c1[nH]c(=O)n(C2C[C@H](O)[C@@H](CO)O2)cc1C(F)(F)F (stereo partly drawn)",
    "group": "Y"
  }
]

State whether the measured growth reaches 50%, counting equality as reaching it, for CNC(=O)c1c(I)c(NC(C)=O)c(I)c(C(=O)O)c1I
Y

State whether the measured growth reaches 50%, counting equality as reaching it, for COc1ccc(C(=O)CC(CC(=O)c2ccc(OC)cc2)c2c(C)nn(-c3ccccc3)c2Cl)cc1
Y

State whether the measured growth reaches 50%, counting equality as reaching it, for CCCCN(CCCC)C(=O)[C@H](CC)[C@@H]1CC[C@@H](C)[C@@H]([C@H](C)[C@@H](O)[C@@H](C)C(=O)[C@H](CC)C2O[C@]3(C=CC(=O)[C@]4(CC[C@@](C)([C@H]5CC[C@](O)(CC)[C@H](C)O5)O4)O3)[C@H](C)C[C@@H]2C)O1 (stereo partly drawn)
N

State whether the measured growth reaches 50%, counting equality as reaching it, for OC[C@H]1OC([S-])[C@H](O)[C@@H](O)[C@@H]1O.[Au+] (stereo partly drawn)
Y

State whether the measured growth reaches 50%, counting equality as reaching it, for O=[N+]([O-])c1ccc2ncccc2c1Cl
Y

State whether the measured growth reaches 50%, counting equality as reaching it, for CC1OC2CC(=O)OC2C2=C1C(=O)c1c(O)c3c(c(O)c1C2=O)C1CC(O)C3(O)C(C)O1 (stereo not drawn)
N

State whether the measured growth reaches 50%, counting equality as reaching it, for COc1cc(-c2nn(-c3cccc(NC(=O)CCN4CCN(Cc5ccccc5)CC4)c3)cc2-c2ccncc2)ccc1Cl
N

State whether the measured growth reaches 50%, counting equality as reaching it, for Clc1ccc(Cc2ccncc2)cc1
Y

State whether the measured growth reaches 50%, counting equality as reaching it, for COc1ccc(-c2nn(-c3cccc(Cl)c3)cc2-c2cc(-c3cccs3)[nH]c(=S)n2)cc1
N

State whether the measured growth reaches 50%, counting equality as reaching it, for CCN1CC(CCN2CCOCC2)C(C(c2ccccc2)c2ccccc2)C1=O (stereo not drawn)
Y
